Tested on: cloned human or rodent CNS receptors, channels, and transporters (PDSP panel)
TEST NAME: PDSP GPCR panel primary binding assays at 10 μM
CONDITION SET: H4; primary assay, replicate 1

{"MOLECULE": "O=c1oc2ccccc2cc1-c1cn2cc(Cc3ccc(F)cc3)sc2n1 [UNC10302680A, iMDK]", "UNITS OF MEASURE": "%", "Inhibition 1": 11.58}
{"MOLECULE": "CC(=O)N1CCC(NC(=O)NC23CC4CC(CC(C4)C2)C3)CC1 [UNC10302683A, AR9281]", "UNITS OF MEASURE": "%", "Inhibition 1": -0.42}
{"MOLECULE": "CNc1nc(C)nc(N[C@H]2CCC[C@@H](C(=O)NCc3ccc(C#N)cc3C(F)(F)F)C2)n1 [UNC10302679A, GSK2256294A]", "UNITS OF MEASURE": "%", "Inhibition 1": -16.74}
{"MOLECULE": "CCC(=O)N1CCC(NC(=O)Nc2ccc(OC(F)(F)F)cc2)CC1 [UNC10302681A, TPPU]", "UNITS OF MEASURE": "%", "Inhibition 1": -3.06}
{"MOLECULE": "O=C(NC1CC1)C(=O)C(Cc1ccccc1)NC(=O)[C@H]1CCC(=O)N1Cc1ccccc1 (some centres unmarked) [UNC10302676A, ABT-957 (Alicapistat)]", "UNITS OF MEASURE": "%", "Inhibition 1": -3.78}

###

ASSAYED SYSTEM: cloned human or rodent CNS receptors, channels, and transporters (PDSP panel) (Homo sapiens, UniProt P14416)
Construct: expressed in transfected cells
Sequence (P14416 whole entry): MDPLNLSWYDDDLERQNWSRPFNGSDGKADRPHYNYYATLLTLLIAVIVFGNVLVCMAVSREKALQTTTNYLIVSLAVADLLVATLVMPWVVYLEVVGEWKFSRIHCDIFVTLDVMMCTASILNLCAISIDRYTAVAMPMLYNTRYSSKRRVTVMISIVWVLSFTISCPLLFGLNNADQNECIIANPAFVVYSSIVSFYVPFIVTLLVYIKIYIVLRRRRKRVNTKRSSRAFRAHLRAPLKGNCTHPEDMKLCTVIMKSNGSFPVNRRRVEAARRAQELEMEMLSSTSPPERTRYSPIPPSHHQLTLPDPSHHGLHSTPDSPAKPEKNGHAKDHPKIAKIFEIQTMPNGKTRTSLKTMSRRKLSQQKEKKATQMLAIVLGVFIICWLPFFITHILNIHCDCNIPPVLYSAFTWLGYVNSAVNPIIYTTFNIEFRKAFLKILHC
TEST NAME: PDSP GPCR panel primary binding assays at 10 μM
CONDITION SET: Receptor D2; primary assay, 10 μM
Quick list: Inhibition 4 per entry.
EXPERIMENTAL ENDPOINT: Inhibition 4 (%)

{"MOLECULE": "CCCCNc1ncc2c(-c3ccc(CN4CCN(C)CC4)cc3)cn([C@H]3CC[C@H](O)CC3)c2n1 [UNC2025C, UNC2025]", "UNITS OF MEASURE": "%", "TEST RESULT": -1.81}
{"MOLECULE": "c1cn2cc(-c3ccc4cn[nH]c4c3)nc(Nc3ccc(N4CCOCC4)cc3)c2n1 [UNC10302678A, Entospletinib (GS-9973)]", "UNITS OF MEASURE": "%", "TEST RESULT": -7.35}
{"MOLECULE": "O=c1oc2ccccc2cc1-c1cn2cc(Cc3ccc(F)cc3)sc2n1 [UNC10302680A, iMDK]", "UNITS OF MEASURE": "%", "TEST RESULT": 7.52}
{"MOLECULE": "Cl.NC(=O)c1cnc(N[C@@H]2CCCC[C@@H]2N)nc1Nc1cccc(-n2nccn2)c1 [UNC10302682A, P505-15 (PRT06207 HCl)]", "UNITS OF MEASURE": "%", "TEST RESULT": 5.97}

###

Quick list: Inhibition 2 per entry.
ASSAYED SYSTEM: cloned human or rodent CNS receptors, channels, and transporters (PDSP panel) (Homo sapiens, UniProt P28221)
Construct: expressed in transfected cells
Sequence (P28221 whole entry): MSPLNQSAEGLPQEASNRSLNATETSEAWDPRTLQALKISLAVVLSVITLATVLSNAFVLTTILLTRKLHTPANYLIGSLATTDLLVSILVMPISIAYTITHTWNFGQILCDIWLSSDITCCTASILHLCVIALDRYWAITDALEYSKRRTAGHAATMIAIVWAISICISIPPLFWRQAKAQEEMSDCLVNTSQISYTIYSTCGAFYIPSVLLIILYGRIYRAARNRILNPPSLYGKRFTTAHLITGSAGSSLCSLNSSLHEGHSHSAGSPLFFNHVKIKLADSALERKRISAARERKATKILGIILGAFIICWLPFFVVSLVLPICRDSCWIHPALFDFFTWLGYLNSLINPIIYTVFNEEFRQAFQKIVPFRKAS
TEST NAME: PDSP GPCR panel primary binding assays at 10 μM
CONDITION SET: Receptor 5-HT1D; primary assay, 10 μM
EXPERIMENTAL ENDPOINT: Inhibition 2 (%)

{"COMPOUND": "c1cn2cc(-c3ccc4cn[nH]c4c3)nc(Nc3ccc(N4CCOCC4)cc3)c2n1 [UNC10302678A, Entospletinib (GS-9973)]", "EXPERIMENTAL ENDPOINT": "Inhibition 2", "UNITS OF MEASURE": "%", "TEST RESULT": 10.31}
{"COMPOUND": "CCCCNc1ncc2c(-c3ccc(CN4CCN(C)CC4)cc3)cn([C@H]3CC[C@H](O)CC3)c2n1 [UNC2025C, UNC2025]", "EXPERIMENTAL ENDPOINT": "Inhibition 2", "UNITS OF MEASURE": "%", "TEST RESULT": 44.87}
{"COMPOUND": "Cl.NC(=O)c1cnc(N[C@@H]2CCCC[C@@H]2N)nc1Nc1cccc(-n2nccn2)c1 [UNC10302682A, P505-15 (PRT06207 HCl)]", "EXPERIMENTAL ENDPOINT": "Inhibition 2", "UNITS OF MEASURE": "%", "TEST RESULT": 57.78}
{"COMPOUND": "O=c1oc2ccccc2cc1-c1cn2cc(Cc3ccc(F)cc3)sc2n1 [UNC10302680A, iMDK]", "EXPERIMENTAL ENDPOINT": "Inhibition 2", "UNITS OF MEASURE": "%", "TEST RESULT": -18.84}

###

Quick list: Inhibition 4 per entry.
ASSAYED SYSTEM: cloned human or rodent CNS receptors, channels, and transporters (PDSP panel) (Homo sapiens, UniProt P35368)
Construct: expressed in transfected cells
Sequence (P35368 1-520): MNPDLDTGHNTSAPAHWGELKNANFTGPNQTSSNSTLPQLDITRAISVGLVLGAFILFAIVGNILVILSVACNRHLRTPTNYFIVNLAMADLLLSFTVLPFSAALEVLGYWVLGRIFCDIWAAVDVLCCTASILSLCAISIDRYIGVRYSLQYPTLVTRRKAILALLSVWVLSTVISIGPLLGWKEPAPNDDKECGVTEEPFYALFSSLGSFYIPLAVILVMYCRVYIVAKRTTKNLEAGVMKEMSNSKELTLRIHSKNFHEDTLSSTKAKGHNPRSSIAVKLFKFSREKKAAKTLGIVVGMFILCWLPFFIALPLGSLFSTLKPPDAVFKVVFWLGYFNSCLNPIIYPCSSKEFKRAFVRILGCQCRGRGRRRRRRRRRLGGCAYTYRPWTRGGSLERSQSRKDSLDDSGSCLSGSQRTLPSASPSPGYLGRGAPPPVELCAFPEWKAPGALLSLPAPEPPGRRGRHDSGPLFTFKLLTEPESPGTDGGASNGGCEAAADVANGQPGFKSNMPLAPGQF
TEST NAME: PDSP GPCR panel primary binding assays at 10 μM
CONDITION SET: Receptor Alpha1B; primary assay, 10 μM

{"MOLECULE": "CCCCNc1ncc2c(-c3ccc(CN4CCN(C)CC4)cc3)cn([C@H]3CC[C@H](O)CC3)c2n1 [UNC2025C, UNC2025]", "Inhibition 4 (%)": -1.63}
{"MOLECULE": "c1cn2cc(-c3ccc4cn[nH]c4c3)nc(Nc3ccc(N4CCOCC4)cc3)c2n1 [UNC10302678A, Entospletinib (GS-9973)]", "Inhibition 4 (%)": -2.78}
{"MOLECULE": "O=c1oc2ccccc2cc1-c1cn2cc(Cc3ccc(F)cc3)sc2n1 [UNC10302680A, iMDK]", "Inhibition 4 (%)": -5.18}
{"MOLECULE": "Cl.NC(=O)c1cnc(N[C@@H]2CCCC[C@@H]2N)nc1Nc1cccc(-n2nccn2)c1 [UNC10302682A, P505-15 (PRT06207 HCl)]", "Inhibition 4 (%)": 52.45}

###

ASSAYED SYSTEM: cloned human or rodent CNS receptors, channels, and transporters (PDSP panel) (Homo sapiens, UniProt P41595)
Construct: expressed in transfected cells
Sequence (P41595 whole entry): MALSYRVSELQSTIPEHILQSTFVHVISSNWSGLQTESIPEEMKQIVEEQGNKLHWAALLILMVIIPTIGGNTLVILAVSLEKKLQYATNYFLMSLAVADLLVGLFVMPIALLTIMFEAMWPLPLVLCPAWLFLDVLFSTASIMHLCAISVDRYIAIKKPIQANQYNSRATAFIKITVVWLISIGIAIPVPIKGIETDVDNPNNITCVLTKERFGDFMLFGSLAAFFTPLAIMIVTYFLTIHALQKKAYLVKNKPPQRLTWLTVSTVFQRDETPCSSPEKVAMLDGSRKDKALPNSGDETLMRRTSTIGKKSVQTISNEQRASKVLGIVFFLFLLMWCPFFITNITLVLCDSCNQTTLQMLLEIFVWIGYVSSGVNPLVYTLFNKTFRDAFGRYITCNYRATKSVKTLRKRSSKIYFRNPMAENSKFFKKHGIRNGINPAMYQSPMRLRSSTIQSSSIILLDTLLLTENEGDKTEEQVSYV
TEST NAME: PDSP GPCR panel primary binding assays at 10 μM
CONDITION SET: 5-HT2B; primary assay, replicate 2
Method: GPCR panel: Screening against the receptors within the PDSP panel offers an assessment of off-target pharmacological activity at cloned human or rodent CNS receptors, channels, and transporters that could confound CNS-related phenotypes. A total of 46–47 primary binding assays were run in quadruplicate on these compounds at 10 μM, with follow-up secondary binding assays in 11-point dose-response in triplicate for select compounds versus select receptors. […]
Quick list: Inhibition 2 per entry.

{"COMPOUND": "CCC(=O)N1CCC(NC(=O)Nc2ccc(OC(F)(F)F)cc2)CC1 [UNC10302681A, TPPU]", "UNITS OF MEASURE": "%", "Inhibition 2": 29.73}
{"COMPOUND": "O=C(NC1CC1)C(=O)C(Cc1ccccc1)NC(=O)[C@H]1CCC(=O)N1Cc1ccccc1 (stereo partly shown) [UNC10302676A, ABT-957 (Alicapistat)]", "UNITS OF MEASURE": "%", "Inhibition 2": -33.19}
{"COMPOUND": "CC(=O)N1CCC(NC(=O)NC23CC4CC(CC(C4)C2)C3)CC1 [UNC10302683A, AR9281]", "UNITS OF MEASURE": "%", "Inhibition 2": -19.35}
{"COMPOUND": "CNc1nc(C)nc(N[C@H]2CCC[C@@H](C(=O)NCc3ccc(C#N)cc3C(F)(F)F)C2)n1 [UNC10302679A, GSK2256294A]", "UNITS OF MEASURE": "%", "Inhibition 2": -25.64}

Origin of the recorded values: paper PMC9005681
